meta.source: patent US11814435B2

biological target: cyBCMA; experiment: Kinetics and affinity of cyBCMA/human IgG interactions by SPR (Bio-Rad Proteon XPR36); format: binding, cynomolgus; conditions: 37° C.
readout-label: kd (1/s) cyBCMA @37° C. (s⁻¹)
Express the result in s⁻¹ but write the number alone.

molecule	kd (1/s) cyBCMA @37° C. [s⁻¹]
L3.PY/L3.KY/H2.QL: anti-BCMA antibody (antibody, V domains shown) VH: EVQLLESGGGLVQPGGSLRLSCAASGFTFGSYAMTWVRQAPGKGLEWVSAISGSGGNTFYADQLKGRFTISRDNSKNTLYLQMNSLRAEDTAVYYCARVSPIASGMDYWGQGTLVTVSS VL: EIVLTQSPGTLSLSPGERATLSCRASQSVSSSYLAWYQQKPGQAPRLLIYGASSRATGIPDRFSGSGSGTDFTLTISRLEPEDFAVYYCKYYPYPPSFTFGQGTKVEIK	0.00409

Challenge: Endpoint output: kd (1/s) cyBCMA @37° C. of L3.PY/L1.PS/H2.YQ: anti-BCMA antibody (antibody, V domains shown) VH: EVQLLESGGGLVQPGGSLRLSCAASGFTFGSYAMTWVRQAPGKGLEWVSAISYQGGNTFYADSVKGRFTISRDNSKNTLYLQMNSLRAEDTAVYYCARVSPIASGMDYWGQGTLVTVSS VL: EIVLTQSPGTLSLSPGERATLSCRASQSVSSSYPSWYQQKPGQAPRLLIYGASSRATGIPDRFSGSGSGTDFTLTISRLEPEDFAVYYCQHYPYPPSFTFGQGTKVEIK . Value?
Response given: 0.00374
